Would you kindly list IC50 for each of these compounds?
Molecular target: Kras G12D (Homo sapiens (Human), UniProt P01116, G12D)
Sequence (P01116-2 other isoform, or with tags, fused parts or gaps G12D): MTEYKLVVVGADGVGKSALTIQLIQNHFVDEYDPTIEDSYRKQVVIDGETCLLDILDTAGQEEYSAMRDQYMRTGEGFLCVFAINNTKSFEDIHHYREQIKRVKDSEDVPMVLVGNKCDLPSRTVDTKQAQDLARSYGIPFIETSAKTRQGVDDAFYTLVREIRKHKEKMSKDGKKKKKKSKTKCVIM
Experiment: HTRF-based nucleotide exchange assay detecting GTP binding to K-Ras
Conditions: SOS1 (aa 564-1049), fluorescently labelled GTP, compound incubated 1 h at RT

Please review the following examples before continuing.
- COMPOUND: "C#Cc1cccc2cc(O)cc(-c3ncc4c(N5CC6CCCC(C5)N6)nc(OCC56CCCN5CCC6)nc4c3F)c12"
  IC50: "≤ 10 nM"
- COMPOUND: "C#Cc1cccc2cc(O)cc(-c3ncc4c(N5CC6CC(C5)N6)nc(OCC56CCCN5CCC6)nc4c3F)c12"
  IC50: "≤ 10 nM"

Please give IC50, item by item, for the list that follows.
1. C#Cc1cccc2cc(O)cc(-c3ncc4c(N5CC6COCC(C5)N6)nc(OCC56CCCN5CCC6)nc4c3F)c12
2. C#Cc1cccc2cc(O)cc(-c3ncc4c(N5C[C@@H]6C[C@H]5CN6)nc(OCC56CCCN5CCC6)nc4c3F)c12 (stereo in doubt)
3. C[C@H]1CN(c2nc(OCC34CCCN3CCC4)nc3c(F)c(-c4cccc5cccc(Cl)c45)ncc23)C[C@H](C)N1
4. Fc1c(-c2cccc3cccc(Cl)c23)ncc2c(N3CC4CNCC4C3)nc(OCC34CCCN3CCC4)nc12 (centres unmarked)
5. C[C@@H]1CN(c2nc(OCC34CCCN3CCC4)nc3c(F)c(-c4cccc5cccc(Cl)c45)ncc23)C[C@H](C)N1
6. Fc1c(-c2cccc3cccc(Cl)c23)ncc2c(N3C[C@H]4CC[C@@H](C3)N4)nc(OCC34CCCN3CCC4)nc12

// result
1. ≤ 10 nM
2. ≤ 10 nM
3. 10 to 1000 nM
4. > 1000 nM
5. > 1000 nM
6. ≤ 10 nM
